- ASSAYED SYSTEM: CYP2D6 (Homo sapiens, UniProt P10635)
- Construct: Pooled human microsomes and selective CYP probe substrates were used; from tissue; host or cells: pooled human liver microsomes
- Sequence (P10635 whole entry): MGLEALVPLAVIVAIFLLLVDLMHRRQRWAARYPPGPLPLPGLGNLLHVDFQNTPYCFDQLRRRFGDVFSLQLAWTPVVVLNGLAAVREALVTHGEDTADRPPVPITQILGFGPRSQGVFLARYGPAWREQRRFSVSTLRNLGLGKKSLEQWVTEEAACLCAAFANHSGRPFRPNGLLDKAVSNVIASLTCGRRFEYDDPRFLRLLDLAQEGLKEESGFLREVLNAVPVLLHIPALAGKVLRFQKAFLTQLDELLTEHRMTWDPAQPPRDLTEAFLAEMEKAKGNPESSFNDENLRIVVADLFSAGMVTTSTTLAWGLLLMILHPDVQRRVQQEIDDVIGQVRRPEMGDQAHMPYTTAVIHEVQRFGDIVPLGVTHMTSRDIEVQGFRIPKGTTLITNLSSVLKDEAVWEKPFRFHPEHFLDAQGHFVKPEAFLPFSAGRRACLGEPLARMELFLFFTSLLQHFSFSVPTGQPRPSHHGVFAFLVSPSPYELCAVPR
- PROTOCOL NOTES: Time-dependent inhibition of CYP2D6 in human liver microsomes
- Type: in vitro ADME
- TEST PARAMETERS: pooled human liver microsomes; CYP2D6, 50 μM, human liver microsomes, after 30 minutes incubation; read-out: % Activity NADPH T30
QUANTITY NAME: activity at 30 min, 50 µM (%)
Provide only the numeric value, understood in %.

**Query** // query activity at 30 min, 50 µM value for entry C[C@H]1CC[C@H](N2CC(=O)N(Cc3ccc(Cl)cc3)C3(CN(C(N)=O)C3)C2=O)CC1
**Result** 91

**Query** Now the compound Cc1cc(CN2C(=O)CN([C@H]3CC[C@H](C)CC3)C(=O)C23CN(C(N)=O)C3)ccc1F
**Result** 92

**Query** Next: CC(C)N1CC(=O)N(Cc2ccc(Cl)c(F)c2)C2(CN(c3cccnn3)C2)C1=O
**Result** 91
